# procedure_details: qHTS assay to identify small molecule antagonists of the thyroid receptor (TR) signaling pathway (AID 743065); further: nearly all actives have a fitted effect of over 55% in size
# stated_conditions: GH3.TRE-Luc, T3-stimulated luciferase inhibition, 23.5 h; series mostly up to 70.3 µM
Inconclusive results are not listed. Calls of active or inactive are those of the source. The call rests on the fitted dose curve; in most records, active means well fitted inhibition curve with a large enough effect in the repeat runs; inconclusive means weak or mixed curves; inactive means no such curve, though single readings can be large or run the other way.
In this exercise, the only acceptable responses are 1 = active, 0 = inactive

Below are worked cases with known answers.
CCN(CC)CCOc1ccc(C(O)(Cc2ccc(Cl)cc2)c2ccc(C)cc2)cc1 (stereo unspecified)    1
CN(C)c1ccc(N=Nc2ccccc2C(=O)O)cc1    1
CCCCCCCCCCCC(=O)N(CC)CC    0

Lab log entry: `CC(C)OC(=O)c1cc(C(=O)OC(C)C)cc([N+](=O)[O-])c1` — outcome as called in the assay?
0

Again, but for `CCCCCCOc1ccc(O)cc1`
1

Again, but for `NC(=O)c1ccccc1N`
0

Again, but for `CC1=C(/C=C/C(C)=C/C=C/C(C)=C\C=O)C(C)(C)CCC1`
1

Again, but for `O=C(c1ccccc1)c1cc(Cl)ccc1O`
0

Again, but for `CCN(CC)CCCN(c1ccccc1)C1Cc2ccccc2C1`
1

Again, but for `O=S(=O)(O)CCCN1CCOCC1`
0

Again, but for C=C1C(C)(C)[C@@]2(Cl)C(Cl)[C@]1(Cl)C(Cl)(Cl)C2(Cl)Cl (stereo partly specified)
1

* * *

# procedure_details: Caspase-3/7 induction in HepG2 cells by small molecules, qHTS assay (AID 1346978); further: nearly all actives have a fitted effect of over 15% in size
# stated_conditions: HepG2 caspase-3/7 activation, Caspase-Glo luminescence, 17 h; series mostly up to 92.4 µM
Records with an inconclusive call do not appear. The source made the active and inactive calls. Calls come from the whole dose curve; as a rule, active = well fitted activation curve with a large enough effect in the repeat runs; inconclusive = weak or mixed curves; inactive = flat fitted curve, though single readings scatter.
In this exercise, the only acceptable responses are active, inactive

Below are worked cases with known answers.
CCO[Si](C)(C)OCC    inactive
CC(C)c1ccc(O)c(C(C)C)c1    active
COc1cc(C(=O)NS(=O)(=O)c2ccccc2C)ccc1Cc1cn(C)c2ccc(NC(=O)OC3CCCC3)cc12    inactive
CCCCCCCCCCCCCCCC    inactive
C=CC/C=C/C/C=C/C/C=C/C    inactive
CO[Si](CCCNCCNCCN)(OC)OC    inactive
CCCC(O)C(O)CO (stereo unspecified)    inactive
c1ccc(Nc2cccc3ccccc23)cc1    inactive

Lab log entry: `CCCCCCCCCCc1ccccc1` — outcome as called in the assay?
inactive

Again, but for `CCCCCCCCCCCCCc1ccccc1`
inactive

Again, but for `C=C(C)C(=O)OCCC[Si](Cl)(Cl)Cl`
inactive

Again, but for `O=C(c1ccccc1)c1cc(Cl)ccc1O`
inactive

Again, but for `COc1cccc(OC)c1O`
inactive

* * *

# procedure_details: qHTS RealTime-Glo MT Cell Viability Assay in HEK293 cells - 8 hour (AID 1224887); further: nearly all actives have a fitted effect of over 50% in size
# stated_conditions: RealTime-Glo luminescence; series mostly up to 76.8 µM
Inconclusive results are not listed. Calls of active or inactive are those of the source. The call rests on the fitted dose curve; in most records, active means well fitted cell-killing curve with a large enough effect in the repeat runs; inconclusive means weak or mixed curves, or effect the other way; inactive means flat fitted curve, though single readings scatter.
In this exercise, the only acceptable responses are active, inactive

Below are worked cases with known answers.
CCCCN(CCCC)CCC(O)c1cc2c(Cl)cc(Cl)cc2c2cc(C(F)(F)F)ccc12 (stereo not given)    inactive
C=CC(C)(CCC=C(C)C)OC(=O)/C=C/c1ccccc1 (stereo not given)    inactive
COCC(=O)O[C@]1(CCN(C)CCCc2nc3ccccc3[nH]2)CCc2cc(F)ccc2[C@@H]1C(C)C    active
O=C1Nc2ccc(Cl)cc2[C@@](C#CC2CC2)(C(F)(F)F)O1    active

Lab log entry: `CCCCCCCOC(=O)c1ccc(O)cc1` — outcome as called in the assay?
active

Again, but for `CCCCCCOc1cc(C)c(O)c(C)c1C`
active

Again, but for `CC(=O)OC1CCCCC1`
inactive

Again, but for `Cc1cnccn1`
inactive

Again, but for `O=C(O)Cc1ccc(OCCNC[C@H](O)c2ccccc2)cc1`
inactive

Again, but for CN1[C@@H]2CC[C@H]1CC(OC(=O)C(CO)c1ccccc1)C2 (stereo not given in full)
inactive
